Listing of entries alongside the reported Kochia plant response rating.
- Tested on: kochia
- ASSAY EXPLANATION: Test C preemergence
- Format: in vivo, Bassia scoparia
- PARTICULARS: Test C, preemergence, 125 g ai/ha; 0 to 100 scale (0 no effect, 100 complete control)
Number, no unit, nothing else.

For orientation, consider the following solved cases.
| COMPOUND | MEASURED QUANTITY | OBSERVED RESULT |
| --- | --- | --- |
| Cc1cccc2c1OC(C(F)(F)F)CN2C(=O)c1cccc(-n2cnc(C(C)C)n2)c1 (single isomer, unassigned) [Compound 302] | Kochia plant response rating | 0 |
| CC(C)c1ncn(-c2ccc(SC(F)(F)F)c(C(=O)N3C[C@H](C)Oc4c(Cl)cccc43)c2)n1 [Compound 249] | Kochia plant response rating | 0 |
| CCc1ncn(-c2ccc(OC)c(C(=S)N3C[C@H](C)Oc4c(C)cccc43)c2)n1 [Compound 271] | Kochia plant response rating | 30 |
| COc1ccc(-n2cncn2)cc1C(=O)N1C[C@H](C)Oc2c(F)cccc21 [Compound 270] | Kochia plant response rating | 60 |

Here's the next entry for you.
Query :: Param readout = Kochia plant response rating; param system = kochia; param query = COC[C@H]1CN(C(=O)c2cc(-n3cnc(C(C)(C)C)n3)ccc2OC)c2cccc(Cl)c2O1 [Compound 230] ; response: value
Result :: 0

---

- Tested on: goosegrass
- ASSAY EXPLANATION: Test A preemergence
- Type: in vivo, Eleusine indica
- PARTICULARS: 500 g ai/ha, 0 to 100 scale (0 no effect, 100 complete control), 10 days
- Text: […]
Listing of recorded Plant response rating, Goosegrass by entry.
Provide a numeric answer; units are not to be included.

Guide cases for Plant response rating, Goosegrass, answers given:
| MOLECULE | MEASURED QUANTITY | OBSERVED RESULT |
| --- | --- | --- |
| C[C@H]1CN(C(=O)c2cccc(-n3cnc(C(C)(C)C)n3)c2)c2cccc(Cl)c2O1 [Compound 92] | Plant response rating, Goosegrass | 100 |
| CC1CN(C(=O)c2cccc(-n3cncn3)c2)c2c(F)cccc2O1 (centres unmarked) [Compound 28] | Plant response rating, Goosegrass | 80 |
| CCCCc1ncn(-c2cccc(C(=O)N3C[C@H](C)Oc4c(C)cccc43)c2)n1 [Compound 86] | Plant response rating, Goosegrass | 90 |
| C[C@H]1CN(C(=O)c2cc(Cl)cc(-n3cncn3)c2)c2cccc(Cl)c2O1 [Compound 81] | Plant response rating, Goosegrass | 90 |
| C[C@H]1CN(C(=O)c2cccc(-n3cncn3)c2)c2cccc(C#N)c2O1 [Compound 46] | Plant response rating, Goosegrass | 100 |

Query :: # input molecule: CC(C)c1ncn(-c2cccc(C(=O)N3C[C@H](C)Oc4c(Cl)cccc43)c2)n1 [Compound 78] ; wanted: its Plant response rating, Goosegrass
Result :: 100

Query :: Consider the molecule shown here: Cc1cc(F)cc2c1OC(C)CN2C(=O)c1cccc(-n2cncn2)c1 (centres unmarked) [Compound 44] What is its recorded Plant response rating, Goosegrass?
Result :: 100

Query :: Using the record for CC1CN(C(=O)c2cc(-n3cncn3)ccc2F)c2cccc(Cl)c2O1 (centres unmarked) [Compound 39] , report its Plant response rating, Goosegrass.
Result :: 100

---

- Tested on: ryegrass, Italian
- ASSAY EXPLANATION: Test A preemergence
- Assay type: in vivo, Lolium multiflorum
- PARTICULARS: 125 g ai/ha, visual injury after 10 days, 0 to 100 scale, 0 is no effect, 100 is complete control
MEASURED QUANTITY: Plant response rating, Ryegrass, Italian

Some molecules with known Plant response rating, Ryegrass, Italian results, for comparison:
| MOLECULE | OBSERVED RESULT |
| --- | --- |
| Cc1cccc2c1O[C@@H](C)CN2C(=O)c1cccc(-n2cnc(C3CCC3)n2)c1 [Compound 77] | 80 |
| Cc1cccc2c1O[C@@H](C)CN2C(=O)c1cccc(-n2cnc(COC(C)C)n2)c1 [Compound 135] | 60 |
| C[C@H]1CN(C(=O)c2cc(C3CC3)cc(-n3cncn3)c2)c2cccc(Cl)c2O1 [Compound 136] | 80 |

Query :: Find the recorded Plant response rating, Ryegrass, Italian belonging to CCc1ncn(-c2ccc(CC)c(C(=O)N3C[C@H](C)Oc4c(Cl)cccc43)c2)n1 [Compound 95] and report it.
Result :: 100

Query :: Using the record for C#CCOc1ccc(-n2cnc(C(C)C)n2)cc1C(=O)N1C[C@H](C)Oc2c(Cl)cccc21 [Compound 107] , report its Plant response rating, Ryegrass, Italian.
Result :: 80

Query :: Which Plant response rating, Ryegrass, Italian value belongs to CCc1ncn(-c2cccc(C(=O)N3C[C@H](C)Oc4c(C)cccc43)c2)n1 [Compound 71] ?
Result :: 100

Query :: Please look up its Plant response rating, Ryegrass, Italian: CCc1ccc(-n2cnc(C3CC3)n2)cc1C(=O)N1C[C@H](C)Oc2c(Cl)cccc21 [Compound 103]
Result :: 80

Query :: Requested read-out: Plant response rating, Ryegrass, Italian. Entry: CCc1ccc(-n2cncn2)cc1C(=O)N1C[C@H](C)Oc2c(Cl)cccc21 [Compound 79]
Result :: 60

---

- Test system: horseweed
- ASSAY EXPLANATION: Test C postemergence
- Type: in vivo, Erigeron canadensis
- PARTICULARS: Postemergence, 125 g ai/ha; 0 to 100 scale (0 no effect, 100 complete control), 10 days
Plant response rating, Horseweed: recorded values
Please give the numeric answer without any surrounding text.

| COMPOUND | TARGET UNDER TEST | MEASURED QUANTITY | OBSERVED RESULT |
| --- | --- | --- | --- |
| Cc1cccc2c1OC(C(F)(F)F)CN2C(=O)c1ccnc(-n2cnc(C(C)C)n2)c1 (single isomer, unassigned) | horseweed | Plant response rating, Horseweed | 10 |

Query :: Name the recorded Plant response rating, Horseweed for Cc1ccc(-n2cnc(C#N)n2)cc1C(=O)N1C[C@H](C)Oc2c(Cl)cccc21 .
Result :: 0

Query :: Look up Plant response rating, Horseweed for this compound: CCc1ncn(-c2cccc(C(=O)N3CC(C(F)(F)F)Oc4c(C)cccc43)c2)n1 (stereo not shown)
Result :: 30

Query :: Need Plant response rating, Horseweed of COc1ncn(-c2cccc(C(=O)N3C[C@H](C)Oc4c(Cl)cccc43)c2)n1 , thanks.
Result :: 0

---

- Test system: kochia
- ASSAY EXPLANATION: Test A preemergence
- Assay type: in vivo, Bassia scoparia
- PARTICULARS: Bassia scoparia, pre-emergence, 240 h, 125 g ai/ha, visual injury after 10 days, 0 to 100 scale, 0 is no effect, 100 is complete control, read-out: Plant response rating, Kochia
MEASURED QUANTITY: pest or weed control at 125 g/ha (%)
Value expressed in %; do not type the unit.

| MOLECULE | TARGET UNDER TEST | pest or weed control at 125 g/ha [%] |
| --- | --- | --- |
| COCc1ncn(-c2cccc(C(=O)N3C[C@H](C)Oc4c(C)cccc43)c2)n1 | kochia | 20 |

Query :: What measured pest or weed control at 125 g/ha goes with CCc1ccc(-n2cnc(C(C)C)n2)cc1C(=O)N1C[C@H](C)Oc2c(Cl)cccc21 ?
Result :: 90

Query :: Find the recorded pest or weed control at 125 g/ha belonging to Cc1cccc2c1O[C@@H](C)CN2C(=O)c1cccc(-n2cnc(C3COC3)n2)c1 and report it.
Result :: 60

Query :: Param item = Cc1ccc(-n2ncnc2C)cc1C(=O)N1C[C@H](C)Oc2c(Cl)cccc21 (single isomer, unassigned) ; retrieve measured pest or weed control at 125 g/ha.
Result :: 0

---

- System: soybean
- ASSAY EXPLANATION: Test A postemergence
- Type: in vivo, Glycine max
- PARTICULARS: Glycine max, post-emergence, 240 h, 500 g ai/ha, postemergence, 10 days, visual injury, 0 to 100 scale (0 no effect, 100 complete control); read-out: Plant response rating, Soybean
MEASURED QUANTITY: plant injury at 500 g/ha (%)
Write the value in % as a bare number.

| MOLECULE | plant injury at 500 g/ha (%) |
| --- | --- |
| Cc1cccc2c1O[C@@H](C)CN2C(=O)c1cccc(-n2cn[nH]c2=O)c1 [Compound 122] | 90 |
| Cc1ccc(-n2ncnc2C)cc1C(=O)N1C[C@H](C)Oc2c(Cl)cccc21 (single isomer, unassigned) [Compound 126] | 60 |
| Cc1ccc(-n2cnc(C(C)(C)C)n2)cc1C(=O)N1C[C@H](C)Oc2c(Cl)cccc21 [Compound 76] | 100 |
| COc1ccc(-n2cnc(C(C)C)n2)cc1C(=O)N1C[C@H](C)Oc2c(Cl)cccc21 [Compound 84] | 100 |
| COCc1ncn(-c2cccc(C(=O)N3C[C@H](C)Oc4c(C)cccc43)c2)n1 [Compound 101] | 100 |

Read the next record carefully.
Query :: Dear colleague, I am looking for the recorded plant injury at 500 g/ha of the following molecule: CCc1ncn(-c2ccc(OC)c(C(=O)N3C[C@H](C)Oc4c(Cl)cccc43)c2)n1 [Compound 88]
Result :: 100
